B1: LINE1-mini (parent)
chain: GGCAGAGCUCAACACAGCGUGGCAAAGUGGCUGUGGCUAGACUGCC

variants of: B1; assay: self-cleavage, relative activity (ratio to wild type); higher = more cleavage; in vitro, sequencing; the parent is a self-cleaving ribozyme
Provide the recorded self-cleavage for the entries that follow.
Lab note: record just the number, no unit beside it.

*Q* Value lookup for self-cleavage; key = GGCAGAGCUCAAGACAGCGUGGCAAAGUGGCCGUGGCUAGACUGCC [C13G U32C]
*A* 0.07

*Q* Fill in the blank: the reported self-cleavage of GGCAGAGCUCAAAACAGCCUGGCAAAGUGGCUGUGGCUAGACUGCC [C13A G19C] is ____.
*A* 0.06

*Q* Entry GGCAGAGCUCAAAACAGCGUGGCAAAGUGGCUGUGGCAAGACUGCC [C13A U38A] : reported self-cleavage = ?
*A* 0.05

*Q* Request the reported self-cleavage associated with GGCAGAGCUCAACACAGCGUGGCUGAGUGGCUGUGGCUAGACUGCC [A24U A25G]
*A* 1.28

*Q* Request the reported self-cleavage associated with CGCAGAGCUCAACACAGCGUGGUAAAGUGGCUGUGGCUAGACUGCC [G1C C23U]
*A* 0.07

*Q* Given the entry GGCAGUGCUCAACACAGCGUGGCAAAGUGGCUGUGCCUAGACUGCC [A6U G36C] , report its measured self-cleavage.
*A* 0.25

*Q* Given GGCAGAGCUCAACCCAGCGUGGCAAAGUGGCUGUGGCUCGACUGCC [A14C A39C] , state its recorded self-cleavage.
*A* 0.04

*Q* Tell me the measured self-cleavage of GGCAGAGCUCAACACAGCGUGGCAAAUUGGCUGUGGCUACACUGCC [G27U G40C] , please.
*A* 0.16

*Q* Fill in the blank: the reported self-cleavage of GGUAGAGCUCAACACAGCGUGGCAAAGUGGCUGUGGCUAGACUGUC [C3U C45U] is ____.
*A* 0.32

*Q* Give the measured self-cleavage of GGCAGAGCUCAACGCAGCGUGGCAAAGUGGCUGUGGCUAGACCGCC [A14G U43C] .
*A* 0.06

*Q* Item GGCAGAGCUGAACACAGCGUGGCAGAGUGGCUGUGGCUAGACUGCC [C10G A25G] has what recorded self-cleavage?
*A* 0.08

*Q* Form field: reported self-cleavage of GGCAGAGCUAAACACAGCGUGGCAAAGUGGCUGUGGUUAGACUGCC [C10A C37U]
*A* 0.01

*Q* Any idea what its self-cleavage is? The variant is GGCAACGCUCAACACAGCGUGGCAAAGUGGCUGUGGCUAGACUGCC [G5A A6C]
*A* 0.2

*Q* Please give the measured self-cleavage for this variant: GGCAGGCCUCAACACAGCGUGGCAAAGUGGCUGUGGCUAGACUGCC [A6G G7C]
*A* 0.14

*Q* Would you kindly share the measured self-cleavage for GGCAGUGCUCAACACAGCGUGGCAAAGUGGCUGUGGCUAGACUCCC [A6U G44C] ?
*A* 0.75

*Q* Could you tell me which self-cleavage is on file for GGCAGAGCUCAACACAGCGUGGCAAAGUCGAUGUGGCUAGACUGCC [G29C C31A] ?
*A* 1.34

*Q* What does the data say about its self-cleavage? Entry: GGCAGAGCUUAACAUAGCGUGGCAAAGUGGCUGUGGCUAGACUGCC [C10U C15U]
*A* 0.28

*Q* Which value of self-cleavage has been reported for GGCAGAGCUCAACACAGCGUGGCAAAGUGGUUAUGGCUAGACUGCC [C31U G33A] in the records?
*A* 0.09

*Q* Reported self-cleavage, variant UGCAGAGCUCAACACAGCGUGGCAAAGUGGCUGUGGGUAGACUGCC [G1U C37G] : ____
*A* 0.03

*Q* Reported self-cleavage for GGCAGAGCGCAAUACAGCGUGGCAAAGUGGCUGUGGCUAGACUGCC [U9G C13U] : what is it?
*A* 0.11

*Q* Sample GGCAGAGCUCAACAAAGCGUGGCAAAGGGGCUGUGGCUAGACUGCC [C15A U28G] — what was its self-cleavage?
*A* 0.06

*Q* Fill blank: measured self-cleavage of the variant GGCAGAUCUCAACACAGCUUGGCAAAGUGGCUGUGGCUAGACUGCC [G7U G19U] is ____.
*A* 0.05

*Q* // lookup self-cleavage for GGCAGUGCUCAACACAGCGUGGCAAAGCGGCUGUGGCUAGACUGCC [A6U U28C]
*A* 0.74

*Q* Data request, read-out self-cleavage, for GGCUGAGCUCAACACAGCGUGGCACAGUGGCUGUGGCUAGACUGCC [A4U A25C]
*A* 0.08

*Q* Endpoint output: self-cleavage of GGCAGAGCUCAACACAGCGUGGCAAAGUCGCUGUGGCUAGACUACC [G29C G44A] . Value?
*A* 0.15

*Q* What does the record list as self-cleavage for GGCGGAGCUCAACACAGCGUGGCAAAGUGGUUGUGGCUAGACUGCC [A4G C31U] ?
*A* 0.14

*Q* Report self-cleavage for GGAAGAGCUCAACACAGCGUGGCCAAGUGGCUGUGGCUAGACUGCC [C3A A24C] please.
*A* 0.27

*Q* Query (variant): AGCAGAGCUCAACACAGCGUGGCAAUGUGGCUGUGGCUAGACUGCC [G1A A26U] ; field requested: self-cleavage
*A* 0.53

*Q* Give its self-cleavage value. Item: GGCAGAGCUCAACACAGCGUGGCGAAGUGGCUGUGGCUAGAGUGCC [A24G C42G]
*A* 0.06

*Q* Fill in the blank: the reported self-cleavage of GGCAGAAAUCAACACAGCGUGGCAAAGUGGCUGUGGCUAGACUGCC [G7A C8A] is ____.
*A* 0.35

*Q* Please look up its self-cleavage: GACAGAGCUCAACACAGCGUGGCAAAGUGGCUGUGGCUAAACUGCC [G2A G40A]
*A* 0.35

*Q* I would be grateful if you could share the reported self-cleavage for GGCAGAGCUAAACACAGCGUGGAAAAGUGGCUGUGGCUAGACUGCC [C10A C23A] .
*A* 0.06

*Q* Given the entry GGCAGUGCACAACACAGCGUGGCAAAGUGGCUGUGGCUAGACUGCC [A6U U9A] , report its measured self-cleavage.
*A* 0.17

*Q* Look up self-cleavage: GGCAGAGCUCAACACAGCGUGGCAAAGUGGAUGUGGAUAGACUGCC [C31A C37A]
*A* 0.08

*Q* What value of self-cleavage has been recorded for this entry: GGCAGAGCUCAACACGGCGUGGCAAAGUGGCUGUGGCAAGACUGCC [A16G U38A]
*A* 0.4

*Q* Request the reported self-cleavage associated with GGCAGAGCUCAACACAGCGUUGCAAAGUGGCUGUGGCUUGACUGCC [G21U A39U]
*A* 0.63

*Q* For the variant shown here, GGCAGAGCUCAACACAGCGUGGCAAAGUGGCUGGAGCUAGACUGCC [U34G G35A] , give the reported self-cleavage.
*A* 0.06

*Q* Give its self-cleavage value. Item: GCCAGAGCUCAACACAGCGAGGCAAAGUGGCUGUGGCUAGACUGCC [G2C U20A]
*A* 0.06

*Q* Which self-cleavage is listed for GGCAGAGCUCAACACAGCGUGGCAUGGUGGCUGUGGCUAGACUGCC [A25U A26G] ?
*A* 0.71

*Q* Value lookup for self-cleavage; key = GGCAGAGCUCAACACAGCGUGGCAAAGUGGCUGUGGCUAGACUACU [G44A C46U]
*A* 0.16

*Q* Which self-cleavage reading was recorded for the variant GGCAGCGCUCAACACCGCGUGGCAAAGUGGCUGUGGCUAGACUGCC [A6C A16C] ?
*A* 0.1

*Q* Can you look up the measured self-cleavage of GGCAGAGCUCAACACAGCGUGGCAAAGUGGCUGUGACUAGACGGCC [G36A U43G] for me?
*A* 0.01

*Q* # query: self-cleavage of entry GGCAGAGCUCAACACAGCGUGGCAAAGUGGCUGUGCGUAGACUGCC [G36C C37G]
*A* 0.07

*Q* I have this variant here, GGCAAAGCUCAGCACAGCGUGGCAAAGUGGCUGUGGCUAGACUGCC [G5A A12G] , and I need its recorded self-cleavage.
*A* 0.08

*Q* Given the variant GGCAGAGCUCAACACAGCUUGGCUAAGUGGCUGUGGCUAGACUGCC [G19U A24U] , what is its reported self-cleavage?
*A* 0.81

*Q* Quick one: self-cleavage for GGCAGAGAUCAACACAGCGUGGCAAGGUGGCUGUGGCUAGACUGCC [C8A A26G] ?
*A* 0.21

*Q* Given the variant GGCAGAGAUCAAUACAGCGUGGCAAAGUGGCUGUGGCUAGACUGCC [C8A C13U] , what is its reported self-cleavage?
*A* 0.9

*Q* # lookup: self-cleavage of GGCAGAGCUCAACACAGCGUGGCAAAGUGGCUCUGGCUAGACCGCC [G33C U43C]
*A* 0.03

*Q* Recorded self-cleavage for GGCGGAGCUCAACACAACGUGGCAAAGUGGCUGUGGCUAGACUGCC [A4G G17A] , please?
*A* 0.06

*Q* May I ask what self-cleavage has been recorded for UGCACAGCUCAACACAGCGUGGCAAAGUGGCUGUGGCUAGACUGCC [G1U G5C] ?
*A* 0.04

*Q* Dear colleague, I am looking for the recorded self-cleavage of the following variant: GGCGGAGCUCAACACAGCGUGGCAAAGUGGCUGUGGGUAGACUGCC [A4G C37G]
*A* 0.07

*Q* Bench note: what self-cleavage did GGCAGAGCUCAACACAGCGUGGCAAAGUGGCUGUUGAUAGACUGCC [G35U C37A] show?
*A* 0.23

*Q* # lookup: self-cleavage of GGCAGAGCUCAACACAGCGUGGCAAAGUGGCUGUGGCUACAUUGCC [G40C C42U]
*A* 0.07

*Q* So what's the measured self-cleavage for this one? GGCAGAGCUCAACACAGGGUGGCAAAGUGGCUGUGGCCAGACUGCC [C18G U38C]
*A* 0.16

*Q* Suppose we examine the variant GGCAGAGCUCAAGACAGCGUGGCAAAGUGACUGUGGCUAGACUGCC [C13G G30A] ; what self-cleavage value has been reported?
*A* 0.15

*Q* Given the variant GGCAGAGCUCAACACAGCAUGGCAAAGAGGCUGUGGCUAGACUGCC [G19A U28A] , what is its reported self-cleavage?
*A* 1.57

*Q* Quick one: self-cleavage for GGCAGAGCUCAACACAGCGUGGCAACGUGGCUGUGGCUAGUCUGCC [A26C A41U] ?
*A* 0.72

*Q* Given the variant GGCAGAGCUCAACACAGCGUGGCAUAGUAGCUGUGGCUAGACUGCC [A25U G29A] , what is its reported self-cleavage?
*A* 0.79

*Q* Reported self-cleavage, variant GGCAGAGCUCAACACAGCGUGGGAAAGUGACUGUGGCUAGACUGCC [C23G G30A] : ____
*A* 1.88

*Q* Which self-cleavage value is on record for GGCAGAGCUCAACACACCGUAGCAAAGUGGCUGUGGCUAGACUGCC [G17C G21A] ?
*A* 1.72

*Q* What self-cleavage value was documented for this variant, GGCAGAGCUCAACACACCGUGGCAAAGUGGCUGUGGCUACACUGCC [G17C G40C] ?
*A* 0.05

*Q* Given the variant GGCAGAGCUCAACACACCGUGGCAAAGUGGCUGUGGCUAGACUGGC [G17C C45G] , what is its reported self-cleavage?
*A* 0.56

*Q* # get_value(readout='self-cleavage', item= GGCAGAGCUCAACACAGCAUUGCAAAGUGGCUGUGGCUAGACUGCC [G19A G21U] )
*A* 0.72

*Q* Look at this variant and give its reported self-cleavage. GGCAGAGCUUAACACAGCGCGGCAAAGUGGCUGUGGCUAGACUGCC [C10U U20C]
*A* 0.28

*Q* What measured self-cleavage goes with GGCAGAGCUCAACAAAGCGUGUCAAAGUGGCUGUGGCUAGACUGCC [C15A G22U] ?
*A* 0.08

*Q* Bench note: what self-cleavage did GGUAGAGCUCCACACAGCGUGGCAAAGUGGCUGUGGCUAGACUGCC [C3U A11C] show?
*A* 0.06

*Q* Please look up its self-cleavage: GGCAGAGCUCAACACAGCGUGGCCAAGUGGCUGUGGGUAGACUGCC [A24C C37G]
*A* 0.02

*Q* Which self-cleavage value belongs to GGCAGAGCUCAACUCUGCGUGGCAAAGUGGCUGUGGCUAGACUGCC [A14U A16U] ?
*A* 0.1

*Q* Give its self-cleavage value. Item: GGCAGAGCUCAACACGACGUGGCAAAGUGGCUGUGGCUAGACUGCC [A16G G17A]
*A* 0.15

*Q* Need self-cleavage of GGCAGAGCUCAACACAGCGUGGCAAAGUGGCUGCGGCUAGACUGCA [U34C C46A] , thanks.
*A* 0.16

*Q* Need self-cleavage, item GGCAGAGCGCAACACAUCGUGGCAAAGUGGCUGUGGCUAGACUGCC [U9G G17U]
*A* 0.08

*Q* What value of self-cleavage has been reported for the following variant? GGCAGAGCUCAACACAGCGUUGCAAAAUGGCUGUGGCUAGACUGCC [G21U G27A]
*A* 0.45

*Q* May I ask what self-cleavage has been recorded for GGCAGAGCCCAACACAGCGUGGCAAAGUGGCUGUGGCUAGACUGGC [U9C C45G] ?
*A* 0.02

*Q* Find the recorded self-cleavage belonging to GGCAGAGCUCAACACUGCGUUGCAAAGUGGCUGUGGCUAGACUGCC [A16U G21U] and report it.
*A* 0.19

*Q* State the recorded self-cleavage for this entry: GGCAGAGCUCAUCACAGCGUGGCAAAGUGGCUGUGGCUAGACUGCA [A12U C46A]
*A* 0.27

*Q* For the variant shown here, GGCAGAGCUCAACAGAGCGUGGCAAAGUGGCUGUGGCUAGACUGAC [C15G C45A] , give the reported self-cleavage.
*A* 0.02

*Q* # self-cleavage lookup, item GGCAGAGCUCAACACAGCGCGGCCAAGUGGCUGUGGCUAGACUGCC [U20C A24C]
*A* 0.31
